Reference for the values: patent US20230183239A1

Each record here notes measured pKi.
TARGET OF ASSAY: ENPP1 (Homo sapiens, UniProt P22413)
Sequence (P22413 whole entry): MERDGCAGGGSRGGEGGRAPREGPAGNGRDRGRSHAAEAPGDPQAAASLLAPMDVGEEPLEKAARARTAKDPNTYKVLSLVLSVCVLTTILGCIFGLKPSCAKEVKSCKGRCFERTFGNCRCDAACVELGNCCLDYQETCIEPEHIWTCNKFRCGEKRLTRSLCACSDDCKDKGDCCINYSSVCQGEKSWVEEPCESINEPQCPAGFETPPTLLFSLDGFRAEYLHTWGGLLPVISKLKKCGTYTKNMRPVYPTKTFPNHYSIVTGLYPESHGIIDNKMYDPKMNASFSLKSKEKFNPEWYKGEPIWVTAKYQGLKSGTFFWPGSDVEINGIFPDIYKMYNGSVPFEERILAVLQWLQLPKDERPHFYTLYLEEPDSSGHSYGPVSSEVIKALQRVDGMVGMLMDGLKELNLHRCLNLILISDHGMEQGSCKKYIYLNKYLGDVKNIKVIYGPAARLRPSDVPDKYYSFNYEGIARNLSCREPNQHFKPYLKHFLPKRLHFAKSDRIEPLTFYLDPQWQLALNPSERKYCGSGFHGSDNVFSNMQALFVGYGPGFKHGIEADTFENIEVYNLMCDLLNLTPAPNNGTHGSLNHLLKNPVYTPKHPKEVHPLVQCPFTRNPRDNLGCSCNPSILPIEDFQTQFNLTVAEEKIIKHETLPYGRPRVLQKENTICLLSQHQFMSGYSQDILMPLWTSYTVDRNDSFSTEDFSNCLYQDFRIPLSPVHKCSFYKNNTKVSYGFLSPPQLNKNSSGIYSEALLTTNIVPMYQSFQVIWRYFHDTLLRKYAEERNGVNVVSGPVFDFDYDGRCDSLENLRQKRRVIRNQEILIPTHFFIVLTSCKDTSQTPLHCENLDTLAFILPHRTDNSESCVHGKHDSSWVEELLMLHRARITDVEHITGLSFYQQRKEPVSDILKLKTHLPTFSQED
EXPERIMENTAL PROTOCOL: ENPP1 enzyme assay with AMP-pNP substrate (hydrolysis of ATP analog)
Assay type: biochemical
MEASUREMENT PARAMETERS: AMP-pNP substrate (ATP analog); Ki from IC50 by Cheng-Prusoff; read-out: ENPP1 Inhibition _AMP-pNP: Ki
pKi: −log10 of the molar value.
PARAMETER MEASURED: pKi

MOLECULE: COc1cc2ncnc(N3CCC(CCNS(N)(=O)=O)CC3)c2cc1OC(C)C [Example 205]
ENDPOINT RESULT: < 6.00
//
MOLECULE: COc1ccc2c(Oc3ccc(S(N)(=O)=O)cc3)ncnc2c1 [Example 356]
ENDPOINT RESULT: 6.00 to 7.00
//
MOLECULE: COc1ccc2c(-c3ccc(CS(N)(=O)=O)cc3)ccnc2c1 [Example 406]
ENDPOINT RESULT: < 6.00
//
MOLECULE: COc1ccc2c(-n3cc(Cl)c4cc(NS(N)(=O)=O)ccc43)ccnc2c1 [Example 413]
ENDPOINT RESULT: < 6.00
//
MOLECULE: COc1ccc2c(Oc3ccc(NS(=O)(=O)NN)cc3)ccnc2c1 [Example 362]
ENDPOINT RESULT: < 6.00
//
MOLECULE: COc1cc2ncc(C#N)c(N3CCC4(CC3)CCN(S(N)(=O)=O)C4)c2cc1F [Example 57]
ENDPOINT RESULT: > 7.00
//
MOLECULE: COc1cc2nccc(NC3CCC(NS(N)(=O)=O)CC3)c2cc1OC (stereo not shown) [Example 307]
ENDPOINT RESULT: < 6.00
//
MOLECULE: NS(=O)(=O)Nc1ccc(Nc2ncnc3ncccc23)cc1 [Example 242]
ENDPOINT RESULT: < 6.00
//
MOLECULE: COc1cc(F)c2c(-c3ccc(CNS(N)(=O)=O)cc3)ccnc2c1 [Example 394]
ENDPOINT RESULT: < 6.00
//
MOLECULE: COc1cc2nccc(N3CCCc4cc(NS(N)(=O)=O)ccc43)c2cc1OC [Example 291]
ENDPOINT RESULT: < 6.00
//
MOLECULE: COc1ccc2c(-c3ccc(CNS(N)(=O)=O)cc3)c(C#N)cnc2c1 [Example 244]
ENDPOINT RESULT: 6.00 to 7.00
//
MOLECULE: COc1cc2ncnc(N(C)c3ccc(NS(N)(=O)=O)cc3)c2cc1OC [Example 190]
ENDPOINT RESULT: < 6.00
//
MOLECULE: COc1ccc2c(Oc3ccc(NS(N)(=O)=O)c(C#N)c3)ccnc2c1 [Example 315]
ENDPOINT RESULT: < 6.00
//
MOLECULE: COc1ccc2c(NCc3ccc(NS(N)(=O)=O)cc3)ccnc2n1 [Example 417]
ENDPOINT RESULT: > 7.00
//
MOLECULE: COc1cc2nccc(Oc3ccc4c(c3)CNS(=O)(=O)N4)c2cc1OC [Example 263]
ENDPOINT RESULT: < 6.00
//
MOLECULE: COc1cc2ncnc(NC(C)c3ccc(NS(N)(=O)=O)cc3)c2cc1F (stereo not shown) [Example 236]
ENDPOINT RESULT: 6.00 to 7.00
//
MOLECULE: COc1cc2ncc(F)c(-c3ccc4c(c3)CN(S(N)(=O)=O)CC4)c2cc1OC [Example 229]
ENDPOINT RESULT: > 7.00
//
MOLECULE: COc1cc2ncnc(N3CCC(CCC(=O)O)CC3)c2cc1OC [Example 171]
ENDPOINT RESULT: < 6.00
//
MOLECULE: COc1ccc2ncnc(N3CCC4(CC3)CCN(S(N)(=O)=O)C4)c2c1 [Example 70]
ENDPOINT RESULT: > 7.00
